Source of measurements: PubChem BioAssay AID1159580

normalized growth overview
procedure_summary: chemical genetic growth profiling, strain panel (AID 1159580);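 also: tested at 20 µM; growth read once vehicle control cultures reached saturation at 30 °C; 1 = growth at the plate median or of vehicle wells; lower values mean less growth of the strain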
study_conditions: S. cerevisiae deletion strains, growth OD, locus YNL322C, strain KRE1, stronger effect = lower value
Screen size: about 5,500 compounds; about 2,000 (36%) were called active. Inconclusive results (about 18%) are left out. The list shows a part of the results.
// return a plain number; no unit text

Record excerpt, results attached:
molecule | normalized growth
Nc1ccc(S(=O)(=O)Nc2nccs2)cc1 | 1.01
CCOP(=S)(OCC)SCCSCC | 0.976
CCOC(=O)C1=CC2(CC)CCCN3CCc4c(n1c1ccccc41)C32 (stereo not drawn) | 0.983
O=C1CC(c2ccccc2)=NO1 | 0.737
O=C1c2cccc3c(SCCO)ccc(c23)C(=O)N1CCc1ccccn1 | 0.996

Consider Cc1cccc2nc(-c3ccccc3)oc(=O)c12 . Its measured normalized growth is 0.983

The reported value for Nc1nc2ncc(CNc3ccc(C(=O)N[C@@H](CCC(=O)O)C(=O)O)cc3)nc2c(=O)[nH]1 in terms of normalized growth is 0.987

The recorded normalized growth for entry COc1nc(N)nc(SC)n1 equals 1

Reported normalized growth ( CN(Cc1cnc2nc(N)nc(N)c2n1)c1ccc(C(=O)NC(CCC(=O)O)C(=O)O)cc1 (stereo not drawn) ) = 0.971

###

procedure_summary: chemical genetic growth profiling, strain panel (AID 1159580)
study_conditions: S. cerevisiae deletion strains, growth OD, locus YBR279W, strain paf1
Screen size: about 5,500 compounds; about 2,000 (36%) were called active. Another 18% or so got no clear call; they are omitted. Rule as the data show it: active = normalized growth mostly below about 0.91 (no sharp cut-off); inconclusive = no clear call, values can overlap the other calls; inactive = mostly above about 0.92. The list shows a part of the results.
Answer with one of the outcomes given here: true (1) for active, false (0) for inactive

molecule | assigned_class
CC1(C)C2CC(=O)O[C@@]3(C)C4=CC(=O)O[C@@H](c5ccoc5)[C@]4(C)CCC3[C@@]2(C)C=C[C@H]1O (some centres not stated) | false (0)

[in] # fetch the recorded call for N[C@@H](CCC(=O)N[C@@H](CCSC(CC(=O)O)C(=O)O)C(=O)NCC(=O)O)C(=O)O (some centres not stated) here
[out] false (0)

[in] Record request — test call for Nc1c(Br)cc(Br)cc1CNC1CCC(O)CC1 (configuration not stated)
[out] false (0)

[in] How was CCOc1ccc2c(c1)C(C)=CC(C)(C)N2 classified in this test?
[out] false (0)

[in] State the result this test recorded for CN(Cc1cnc2nc(N)nc(N)c2n1)c1ccc(C(=O)NC(CCC(=O)O)C(=O)O)cc1 (configuration not stated) .
[out] false (0)

[in] Assay result, entry CCOC(=O)C(C)(N)Cc1ccc(O)c(O)c1 (configuration not stated) — outcome?
[out] false (0)

###

procedure_summary: chemical genetic growth profiling, strain panel (AID 1159580)
study_conditions: S. cerevisiae deletion strains, growth OD, locus YOR083W, strain WHI5, stronger effect = lower value
The whole screen tested about 5,500 compounds, of which about 2,000 (36%) were called active. Another 18% or so got no clear call; they are omitted. This is one part of the list.
normalized growth overview
Number only, no unit.

Lab note: CCN(CC)CCOC(=O)C(Cc1cccc2ccccc12)CC1CCCO1 (configuration not stated) gave normalized growth of 1.01

###

Readings of normalized growth for the listed compounds
procedure_summary: chemical genetic growth profiling, strain panel (AID 1159580)
study_conditions: S. cerevisiae deletion strains, growth OD, locus YLR357W, strain rsc2, stronger effect = lower value
The campaign covered roughly 5,500 compounds. About 2,000 (36%) were called active. Inconclusive results (about 18%) are left out. This is one part of the list.

compound | reported_result
Nc1nccs1 | 0.945 (inactive)
O=C1O[C@@H](CO)[C@H](O)[C@@H](O)[C@@H]1O | 1.01 (inactive)
C=CCN1CC[C@]23c4c5ccc(O)c4OC2C(=O)CC[C@@]3(O)[C@H]1C5 (stereo partly drawn) | 0.939 (inactive)
c1cc2c(cc1[C@H]1OC[C@H]3[C@@H]1CO[C@H]3c1ccc3c(c1)OCO3)OCO2 | 0.951 (inactive)
CC(=O)O[C@H]1C[C@@H](OC(C)=O)C(C)(C)C2C[C@@H](OC(C)=O)[C@]3(C)C(CC[C@@]4(C)[C@H](c5ccoc5)C(=O)[C@H]5O[C@]543)[C@]21C (stereo partly drawn) | 1.01 (inactive)

// normalized growth value for COc1cc(C)c2c(c1C=O)Oc1c(c(C)c(O)c3c1C(O)OC3=O)OC2=O (stereo not drawn) : 0.997 (inactive)

Reported normalized growth ( S=c1[nH]c2ccccc2s1 ) = 0.879 (inactive)

normalized growth for O=C(O)c1cc(=O)c(O)c2c(O)c(O)ccc2c1 is 0.943 (inactive)

// field: normalized growth; key: O=C(O)c1ccc2c(c1)OCO2 ; value = 1.09 (inactive)

###

procedure_summary: chemical genetic growth profiling, strain panel (AID 1159580);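 also: tested at 20 µM; growth read once vehicle control cultures reached saturation at 30 °C; 1 = growth at the plate median or of vehicle wells; lower values mean less growth of the strain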
study_conditions: S. cerevisiae deletion strains, growth OD, locus YGR135W, strain pre9, stronger effect = lower value
About 2,000 (36%) of roughly 5,500 compounds were called active. Another 18% or so got no clear call; they are omitted. The list shows a part of the results.
outcome_measure: normalized growth
The answer should be a number; do not append a unit.

Below, 4 compounds whose answers are already recorded.
compound | normalized growth
CC(=O)OCC(=O)[C@@]12OC(C)(C)O[C@@H]1CC1C3C[C@H](F)C4=CC(=O)C=C[C@]4(C)[C@@]3(F)[C@@H](O)C[C@@]12C (stereo not given in full) | 1.07
Nc1c(Br)cc(Br)cc1CNC1CCC(O)CC1 (stereo not given) | 0.984
Nc1ccc(S(=O)(=O)Nc2nccs2)cc1 | 1.01
NC(=O)c1cc[n+](CC2=C(C(=O)O)N3C(=O)C(NC(=O)C(c4ccccc4)S(=O)(=O)[O-])C3SC2)cc1 (stereo not given) | 0.957

Note: attention shifts to another entry.
Measured normalized growth, NCCCCN=C(N)N : 1

###

procedure_summary: chemical genetic growth profiling, strain panel (AID 1159580);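 also: tested at 20 µM; growth read once vehicle control cultures reached saturation at 30 °C; 1 = growth at the plate median or of vehicle wells; lower values mean less growth of the strain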
study_conditions: S. cerevisiae deletion strains, growth OD, locus YMR223W, strain ubp8
In all, about 5,500 compounds went through this assay and about 2,000 (36%) were called active. Another 18% or so got no clear call; they are omitted. Rule as the data show it: active = normalized growth mostly below about 0.91 (no sharp cut-off); inconclusive = no clear call, values can overlap the other calls; inactive = mostly above about 0.92. The list shows a part of the results.
Your response should consist of one outcome taken from 1 (yes) for active, 0 (no) for inactive

compound | assigned_class
Nc1nc2c(c(=O)[nH]1)N(C=O)C(CNc1ccc(C(=O)N[C@@H](CCC(=O)O)C(=O)O)cc1)CN2 (some centres not stated) | 0 (no)
O=C1N=C(O)CN1/N=C\c1ccc(-c2ccc([N+](=O)[O-])cc2)o1 | 0 (no)
O=C(O)CCCCC1SCC2NC(=O)NC21 (configuration not stated) | 0 (no)

[in] Which outcome did this test record for the compound C[C@](N)(Cc1ccc(O)c(O)c1)C(=O)O ?
[out] 0 (no)

[in] Please share the test call associated with O=c1cccc2n1C[C@H]1CNCC2C1 .
[out] 0 (no)

[in] Per the records of this test, what outcome belongs to CC(=O)O[C@H]1CC[C@@]2(C)C(=CCC3C2CC[C@@]2(C)C3CC[C@@H]2C(C)CCCC(C)C)C1 (some centres not stated) ?
[out] 0 (no)

[in] Query: recorded result category for COc1ccc(-c2cc(C(F)F)nn2-c2ccc(S(N)(=O)=O)cc2)cc1F in this test
[out] 0 (no)

[in] Can you look up the reported call for CC(COc1ccccc1)N(CCCl)Cc1ccccc1 (configuration not stated) for me?
[out] 0 (no)

[in] Dear colleague, could you share the recorded outcome for Nc1nc(N)c2nc(CNc3ccc(C(=O)NC(CCC(=O)O)C(=O)O)cc3)cnc2n1 (configuration not stated) when you have a moment?
[out] 0 (no)

[in] Please indicate how the test categorized CCn1cc(C(=O)O)c(=O)c2cnc(N3CCNCC3)nc21 .
[out] 0 (no)

###

procedure_summary: chemical genetic growth profiling, strain panel (AID 1159580);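 also: tested at 20 µM; growth read once vehicle control cultures reached saturation at 30 °C; 1 = growth at the plate median or of vehicle wells; lower values mean less growth of the strain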
study_conditions: S. cerevisiae deletion strains, growth OD, locus YGR252W, strain gcn5
The whole screen tested about 5,500 compounds, of which about 2,000 (36%) were called active. Inconclusive results (about 18%) are left out. Cut-off read from the data, not from the text of the source: active = normalized growth mostly below about 0.91 (no sharp cut-off); inconclusive = no clear call, values can overlap the other calls; inactive = mostly above about 0.92. The list shows a part of the results.
Pick one and only one: 1 (yes) = active, 0 (no) = inactive

Sample answers from the record:
compound | assigned_class
CCOC(=O)CCCCCCCCCCCCC1C=CCC1 (configuration not stated) | 1 (yes)
COc1cc(C(=O)O)c(O)c2c1OCO2 | 0 (no)
O=C(O)c1cc(=O)c2c(OCC(O)COc3cccc4oc(C(=O)O)cc(=O)c34)cccc2o1 | 0 (no)

[in] Check the results log: what was the call for COc1cc(C)c2c(c1C=O)Oc1c(c(C)c(O)c3c1C(O)OC3=O)OC2=O (configuration not stated) ?
[out] 0 (no)

[in] Short answer needed: outcome of this test for O=C(O)CCCCC1SCC2NC(=O)NC21 (configuration not stated) ?
[out] 0 (no)

[in] Would you mind telling me which call this test gave C[C@@]12C(=O)OC(=O)[C@]1(C)C1CCC2O1 ?
[out] 0 (no)

[in] Hi, sorry to bother you, what did the test record for COP(=S)(OC)Oc1ccc(SC)c(C)c1 ?
[out] 0 (no)
